- Experimental details: in vitro
- Condition context: human
Let's look at some compounds and their measured viability at 14 days, 20 × cmax.

Below, each entry is followed by its recorded viability at 14 days, 20 × cmax result.
Task item: // viability at 14 days, 20 × cmax lookup, key: Nc1c2c(nc3ccccc13)CCCC2 [Tacrine]
Reply: > 100%

Task item: // viability at 14 days, 20 × cmax lookup, key: Cc1ccc(-c2cc(C(F)(F)F)nn2-c2ccc(S(N)(=O)=O)cc2)cc1 [Celecoxib]
Reply: < 2%

Continuing:
Task item: // viability at 14 days, 20 × cmax lookup, key: CC(CCc1ccccc1)NCC(O)c1ccc(O)c(C(N)=O)c1 (stereo not shown) [Labetalol]
Reply: > 100%

Task item: // viability at 14 days, 20 × cmax lookup, key: COC1=CC(=O)C[C@@H](C)[C@]12Oc1c(Cl)c(OC)cc(OC)c1C2=O [Griseofulvin]
Reply: > 100%

---

- Tested on: primary human hepatocytes (PHH) 3D spheroids
Quantity name: Chemically defined spheroids (this study) 20x

Below, each entry is followed by its recorded Chemically defined spheroids (this study) 20x result.
Task item: What reported Chemically defined spheroids (this study) 20x corresponds to CC(C)OC(=O)C(C)(C)Oc1ccc(C(=O)c2ccc(Cl)cc2)cc1 [Fenofibrate] on primary human hepatocytes (PHH) 3D spheroids?
Reply: Positive

Task item: What reported Chemically defined spheroids (this study) 20x corresponds to CC(C)C(=O)Nc1ccc([N+](=O)[O-])c(C(F)(F)F)c1 [Flutamide] on primary human hepatocytes (PHH) 3D spheroids?
Reply: Positive

Task item: What reported Chemically defined spheroids (this study) 20x corresponds to CCC(=O)OCC(=O)[C@@]1(OC(=O)CC)[C@@H](C)C[C@H]2[C@@H]3CCC4=CC(=O)C=C[C@]4(C)[C@@]3(Cl)[C@@H](O)C[C@@]21C [Beclomethasone Dipropionate] on primary human hepatocytes (PHH) 3D spheroids?
Reply: Negative

Task item: What reported Chemically defined spheroids (this study) 20x corresponds to CC(=O)[C@H]1CC[C@H]2[C@@H]3CCC4=CC(=O)CC[C@]4(C)[C@H]3CC[C@]12C on primary human hepatocytes (PHH) 3D spheroids?
Reply: Negative

Task item: What reported Chemically defined spheroids (this study) 20x corresponds to CC(C)NNC(=O)c1ccncc1 on primary human hepatocytes (PHH) 3D spheroids?
Reply: Negative

Continuing:
Task item: What reported Chemically defined spheroids (this study) 20x corresponds to O=C(O)Cc1ccccc1Nc1c(Cl)cccc1Cl on primary human hepatocytes (PHH) 3D spheroids?
Reply: Positive

Task item: What reported Chemically defined spheroids (this study) 20x corresponds to CC(N/C(=N\C#N)Nc1ccncc1)C(C)(C)C (stereo not shown) on primary human hepatocytes (PHH) 3D spheroids?
Reply: Negative

Task item: What reported Chemically defined spheroids (this study) 20x corresponds to CC(c1cc2ccccc2s1)N(O)C(N)=O (stereo not shown) on primary human hepatocytes (PHH) 3D spheroids?
Reply: Negative

Task item: What reported Chemically defined spheroids (this study) 20x corresponds to CC(C)(C)NCC(O)COc1cccc2c1CC(O)C(O)C2 (stereo not shown) on primary human hepatocytes (PHH) 3D spheroids?
Reply: Negative

Task item: What reported Chemically defined spheroids (this study) 20x corresponds to N=C(N)NC(=O)c1nc(Cl)c(N)nc1N [Amiloride] on primary human hepatocytes (PHH) 3D spheroids?
Reply: Negative

---

Here's a batch of compounds along with measured Chemically defined spheroids (this study) 20x for primary human hepatocytes (PHH) 3D spheroids.

Below, each entry is followed by its recorded Chemically defined spheroids (this study) 20x result.
Task item: // Chemically defined spheroids (this study) 20x lookup, key: O=C(c1ccc(OCCN2CCCCC2)cc1)c1c(-c2ccc(O)cc2)sc2cc(O)ccc12
Reply: Negative

Task item: // Chemically defined spheroids (this study) 20x lookup, key: CCN(CC)Cc1cc(Nc2ccnc3cc(Cl)ccc23)ccc1O
Reply: Positive

Task item: // Chemically defined spheroids (this study) 20x lookup, key: Fc1ccc([C@@H]2CCNC[C@H]2COc2ccc3c(c2)OCO3)cc1
Reply: Negative

Task item: // Chemically defined spheroids (this study) 20x lookup, key: CCc1nn(CCCN2CCN(c3cccc(Cl)c3)CC2)c(=O)n1CCOc1ccccc1
Reply: Positive

Task item: // Chemically defined spheroids (this study) 20x lookup, key: O=C1NC(=O)C(c2ccccc2)(c2ccccc2)N1
Reply: Negative

Continuing:
Task item: // Chemically defined spheroids (this study) 20x lookup, key: CC(=O)N1CCN(c2ccc(OCC3COC(Cn4ccnc4)(c4ccc(Cl)cc4Cl)O3)cc2)CC1 (stereo not drawn)
Reply: Positive

Task item: // Chemically defined spheroids (this study) 20x lookup, key: OC(Cn1cncn1)(Cn1cncn1)c1ccc(F)cc1F
Reply: Negative

Task item: // Chemically defined spheroids (this study) 20x lookup, key: Nc1cc(-c2ccncc2)c[nH]c1=O
Reply: Negative

Task item: // Chemically defined spheroids (this study) 20x lookup, key: CC(C(=O)O)c1ccc2oc(-c3ccc(Cl)cc3)nc2c1 (stereo not drawn)
Reply: Negative

---

- Test system: primary human hepatocytes (PHH) 3D spheroids
Quantity name: Chemically defined spheroids (this study) 20x

Below, each entry is followed by its recorded Chemically defined spheroids (this study) 20x result.
Task item: What reported Chemically defined spheroids (this study) 20x corresponds to COc1ccc2c(c1)c(CC(=O)O)c(C)n2C(=O)c1ccc(Cl)cc1 on primary human hepatocytes (PHH) 3D spheroids?
Reply: Positive

Task item: What reported Chemically defined spheroids (this study) 20x corresponds to Nc1c2c(nc3ccccc13)CCCC2 on primary human hepatocytes (PHH) 3D spheroids?
Reply: Negative

Task item: What reported Chemically defined spheroids (this study) 20x corresponds to NCC1(CC(=O)O)CCCCC1 on primary human hepatocytes (PHH) 3D spheroids?
Reply: Negative

Task item: What reported Chemically defined spheroids (this study) 20x corresponds to CC(=O)CC(c1ccccc1)c1c(O)c2ccccc2oc1=O (stereo not shown) on primary human hepatocytes (PHH) 3D spheroids?
Reply: Negative

Task item: What reported Chemically defined spheroids (this study) 20x corresponds to Cc1ccc(-c2cc(C(F)(F)F)nn2-c2ccc(S(N)(=O)=O)cc2)cc1 on primary human hepatocytes (PHH) 3D spheroids?
Reply: Positive

Continuing:
Task item: What reported Chemically defined spheroids (this study) 20x corresponds to CCC1(c2ccc(N)cc2)CCC(=O)NC1=O (stereo not shown) [Aminoglutethimide] on primary human hepatocytes (PHH) 3D spheroids?
Reply: Negative

Task item: What reported Chemically defined spheroids (this study) 20x corresponds to Cc1nc2n(c(=O)c1CCN1CCC(c3noc4cc(F)ccc34)CC1)CCCC2 on primary human hepatocytes (PHH) 3D spheroids?
Reply: Negative

Task item: What reported Chemically defined spheroids (this study) 20x corresponds to CC(C)(Oc1ccc(CCNC(=O)c2ccc(Cl)cc2)cc1)C(=O)O [Bezafibrate] on primary human hepatocytes (PHH) 3D spheroids?
Reply: Negative

Task item: What reported Chemically defined spheroids (this study) 20x corresponds to Cc1cccc(Nc2ccccc2C(=O)O)c1C on primary human hepatocytes (PHH) 3D spheroids?
Reply: Positive

Task item: What reported Chemically defined spheroids (this study) 20x corresponds to CC(=O)Nc1ccc(OCC(O)CNC(C)C)cc1 (stereo not shown) on primary human hepatocytes (PHH) 3D spheroids?
Reply: Negative

---

- Tested on: primary human hepatocytes (PHH) 3D spheroids
Quantity name: Chemically defined spheroids (this study) 20x

Below, each entry is followed by its recorded Chemically defined spheroids (this study) 20x result.
Task item: // Chemically defined spheroids (this study) 20x lookup, key: O=c1[nH]c(=O)n([C@@H]2O[C@H](CO)[C@@H](O)[C@@H]2F)cc1I
Reply: Positive

Task item: // Chemically defined spheroids (this study) 20x lookup, key: CCc1c(C)[nH]c2c1C(=O)C(CN1CCOCC1)CC2 (stereo not shown)
Reply: Negative

Task item: // Chemically defined spheroids (this study) 20x lookup, key: NC12CC3CC(CC(C3)C1)C2
Reply: Negative

Task item: // Chemically defined spheroids (this study) 20x lookup, key: CCCCNc1cc(C(=O)O)cc(S(N)(=O)=O)c1Oc1ccccc1 [Bumetanide]
Reply: Negative

Task item: // Chemically defined spheroids (this study) 20x lookup, key: CN1Cc2c(N)cccc2C(c2ccccc2)C1 (stereo not shown)
Reply: Positive

Task item: // Chemically defined spheroids (this study) 20x lookup, key: CCN(CC)C(=O)N1CCN(C)CC1
Reply: Negative

Task item: // Chemically defined spheroids (this study) 20x lookup, key: CN(Cc1cnc2nc(N)nc(N)c2n1)c1ccc(C(=O)N[C@@H](CCC(=O)O)C(=O)O)cc1 [Methotrexate]
Reply: Positive

Task item: // Chemically defined spheroids (this study) 20x lookup, key: C#CCN(C)Cc1ccccc1
Reply: Negative

Continuing:
Task item: // Chemically defined spheroids (this study) 20x lookup, key: Cc1ccc(C(=O)c2cc(O)c(O)c([N+](=O)[O-])c2)cc1
Reply: Positive

Task item: // Chemically defined spheroids (this study) 20x lookup, key: Cc1ncc(CO)c(CO)c1O
Reply: Negative
